We begin with a simple list: items and their reported DC50.
Molecular target: androgen receptor (AR) (Homo sapiens, UniProt P10275, T878A)
Construct: host or cells: LNCaP human prostate cancer cells
Sequence (P10275 whole entry T878A): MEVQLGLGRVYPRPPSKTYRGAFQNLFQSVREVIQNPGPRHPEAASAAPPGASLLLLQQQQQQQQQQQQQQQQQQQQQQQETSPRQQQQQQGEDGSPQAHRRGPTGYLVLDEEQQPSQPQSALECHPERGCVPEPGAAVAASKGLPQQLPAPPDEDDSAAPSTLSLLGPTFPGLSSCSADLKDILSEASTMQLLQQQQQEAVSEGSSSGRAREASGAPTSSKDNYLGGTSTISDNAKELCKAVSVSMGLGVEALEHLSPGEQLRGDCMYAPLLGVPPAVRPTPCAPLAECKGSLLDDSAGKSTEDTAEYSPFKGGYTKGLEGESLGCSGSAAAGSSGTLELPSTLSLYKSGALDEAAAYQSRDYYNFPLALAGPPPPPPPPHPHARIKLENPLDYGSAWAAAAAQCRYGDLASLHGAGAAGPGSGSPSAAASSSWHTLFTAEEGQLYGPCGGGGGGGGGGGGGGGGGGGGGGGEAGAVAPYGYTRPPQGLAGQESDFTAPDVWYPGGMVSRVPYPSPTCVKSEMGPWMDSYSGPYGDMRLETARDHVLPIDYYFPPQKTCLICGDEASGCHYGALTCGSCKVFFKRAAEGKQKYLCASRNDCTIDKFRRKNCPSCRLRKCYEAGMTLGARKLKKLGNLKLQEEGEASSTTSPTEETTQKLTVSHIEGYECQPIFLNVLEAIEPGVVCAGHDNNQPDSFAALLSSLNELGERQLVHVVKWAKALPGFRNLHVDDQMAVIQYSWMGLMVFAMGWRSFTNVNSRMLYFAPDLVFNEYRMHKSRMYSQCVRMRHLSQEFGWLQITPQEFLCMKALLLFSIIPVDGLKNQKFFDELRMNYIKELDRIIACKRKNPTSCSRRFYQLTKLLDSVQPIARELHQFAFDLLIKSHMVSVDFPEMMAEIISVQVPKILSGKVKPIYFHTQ
Test: Degradation activity on androgen receptor in LNCaP cells (AR ELISA)
Format: cell-based
Details: 0.1 nM R1881, 24 hours, read-out: LNCaP DC50
All answers are understood in nM, so give the number only.

Here is how some compounds turned out for DC50.
{"columns": ["compound", "DC50 [nM]"],
 "data": [
  ["C[C@H]1CC2(CCN(c3ccc(C(=O)N4CC(CN5CCC(c6cccc(NC7CCC(=O)NC7=O)c6)CC5)C4)nn3)CC2)CN1c1ccc(C#N)c(Cl)c1 (some centres unmarked) [Example 21]", 0.5],
  ["C[C@H]1CC2(CCN(c3ccc(C(=O)N4CCC(CN5CCC(c6ccc(NC7CCC(=O)NC7=O)cc6F)CC5)CC4)cc3)CC2)CN1c1ccc(C#N)c(Cl)c1 (some centres unmarked) [Example 27]", 7.7],
  ["C[C@H]1CC2(CCN(c3ccc(C(=O)N4CCC(CN5CCN(c6ccc(C(=O)NC7CCC(=O)NC7=O)nc6)CC5)CC4)cc3)CC2)CN1c1ccc(C#N)c(Cl)c1 (some centres unmarked) [Example 4]", 20.2]
]}

I would be grateful if you could share the reported DC50 for C[C@H]1CC2(CCN(c3ccc(C(=O)N4CCC5(CC4)CC(N4CCN(c6ccc(N7CCC(=O)NC7=O)cc6)CC4)C5)cc3)CC2)CN1c1ccc(C#N)c(Cl)c1 [Example 28] .
5.8

Now this one: Cc1c(N2CCC3(CCN(c4ccc(C(=O)N5CCC(CN6CCN(c7cccc(NC8CCC(=O)NC8=O)c7)CC6)CC5)cc4)CC3)C2)ccc(C#N)c1Cl (racemic) [Example 38]
11.7

Please do the same for C[C@H]1CC2(CCN(c3ccc(C(=O)N4CCN(CC(=O)Nc5cccc(NC6CCC(=O)NC6=O)c5)CC4)cc3)CC2)CN1c1ccc(C#N)c(Cl)c1 (some centres unmarked) [Example 42] as well.
4.2

Same read-out for C[C@H]1CC2(CCN(c3ccc(C(=O)N4CC(CN5CCN(c6cccc(NC7CCC(=O)NC7=O)c6)CC5)C4)nn3)CC2)CN1c1ccc(C#N)c(Cl)c1 (some centres unmarked) [Example 22] ?
0.4

C[C@H]1CC2(CCN(c3ccc(C(=O)N4CCC(CN5CCC(N6CCN(c7ccc(N8CCC(=O)NC8=O)cc7)CC6)CC5)CC4)cc3)CC2)CN1c1ccc(C#N)c(Cl)c1 [Example 9] ?
12.9
